TARGET UNDER TEST: Gonadotropin-releasing hormone receptor (Homo sapiens, UniProt P30968)
Sequence (P30968 whole entry): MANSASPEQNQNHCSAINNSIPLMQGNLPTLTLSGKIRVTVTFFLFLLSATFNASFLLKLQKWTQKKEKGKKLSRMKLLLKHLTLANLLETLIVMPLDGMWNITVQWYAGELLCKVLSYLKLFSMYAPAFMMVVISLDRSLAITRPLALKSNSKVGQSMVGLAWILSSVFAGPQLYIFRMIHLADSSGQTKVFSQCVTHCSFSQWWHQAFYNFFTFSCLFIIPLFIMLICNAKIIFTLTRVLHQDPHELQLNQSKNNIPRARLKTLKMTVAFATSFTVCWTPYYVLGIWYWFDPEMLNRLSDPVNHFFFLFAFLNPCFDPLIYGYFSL
PROCEDURE DETAILS: Displacement of [125I]D-Trp6-LHRH from human GnRH receptor expressed in CHO-K1 cell membranes incubated for 1 hr by competitive binding assay
Record form. Attribute: IC50. Fill in for each entry.
Form entry: value (nM) — number only.

Query: If you can, please state the reported IC50 value of Cc1c(N2CCN(Cc3cccc(F)c3)CC2)c(=O)n(C[C@H](N)c2ccccc2)c(=O)n1Cc1c(F)cccc1C(F)(F)F .
Response: 1.7

Query: If you can, please state the reported IC50 value of COC(=O)c1ccc(CN2CCN(c3c(C)n(Cc4c(F)cccc4C(F)(F)F)c(=O)n(C[C@H](N)c4ccccc4)c3=O)CC2)o1 .
Response: 0.31

Query: If you can, please state the reported IC50 value of Cc1c(N2CCN(Cc3ccco3)CC2)c(=O)n(C[C@H](N)c2ccccc2)c(=O)n1Cc1c(F)cccc1C(F)(F)F .
Response: 2.76

Query: If you can, please state the reported IC50 value of Cc1c(N2CCN(Cc3cccnc3F)CC2)c(=O)n(C[C@H](N)c2ccccc2)c(=O)n1Cc1c(F)cccc1C(F)(F)F .
Response: 1.07

Query: If you can, please state the reported IC50 value of Cc1c(N2CCN(Cc3ccccc3F)CC2)c(=O)n(C[C@H](N)c2ccccc2)c(=O)n1Cc1c(F)cccc1F .
Response: 4.1

Query: If you can, please state the reported IC50 value of Cc1c(N2CCN(Cc3ccoc3)CC2)c(=O)n(C[C@H](N)c2ccccc2)c(=O)n1Cc1c(F)cccc1C(F)(F)F .
Response: 6.59

Query: If you can, please state the reported IC50 value of Cc1c(N2CCN(Cc3cccc(C#N)c3)CC2)c(=O)n(C[C@H](N)c2ccccc2)c(=O)n1Cc1c(F)cccc1F .
Response: 5

Query: If you can, please state the reported IC50 value of Cc1c(N2CCN(Cc3cncc(F)c3)CC2)c(=O)n(C[C@H](N)c2ccccc2)c(=O)n1Cc1c(F)cccc1C(F)(F)F .
Response: 2

Query: If you can, please state the reported IC50 value of Cc1c(N2CCN(Cc3ccon3)CC2)c(=O)n(C[C@H](N)c2ccccc2)c(=O)n1Cc1c(F)cccc1C(F)(F)F .
Response: 14.1

###

Record form. Attribute: IC50. Fill in for each entry.
TARGET UNDER TEST: Gonadotropin-releasing hormone receptor (Homo sapiens, UniProt P30968)
PROCEDURE DETAILS: Displacement of [125I]D-Trp6-LHRH from human GnRH receptor expressed in CHO-K1 cell membranes incubated for 1 hr by competitive binding assay
Form entry: value (nM) — number only.

Query: If you can, please state the reported IC50 value of Cc1c(N2CCN(Cc3ccccc3Cl)CC2)c(=O)n(C[C@H](N)c2ccccc2)c(=O)n1Cc1c(F)cccc1F .
Response: 19.1

Query: If you can, please state the reported IC50 value of Cc1c(N2CCN(Cc3ccccc3[N+](=O)[O-])CC2)c(=O)n(C[C@H](N)c2ccccc2)c(=O)n1Cc1c(F)cccc1F .
Response: 13.3

Query: If you can, please state the reported IC50 value of Cc1cncc(CN2CCN(c3c(C)n(Cc4c(F)cccc4C(F)(F)F)c(=O)n(C[C@H](N)c4ccccc4)c3=O)CC2)c1 .
Response: 7.18

Query: If you can, please state the reported IC50 value of Cc1c(N2CCN(Cc3cccc(Cl)c3)CC2)c(=O)n(C[C@H](N)c2ccccc2)c(=O)n1Cc1c(F)cccc1F .
Response: 3.1

Query: If you can, please state the reported IC50 value of Cc1c(N2CCN(Cc3ccc(C(F)(F)F)o3)CC2)c(=O)n(C[C@H](NCCCS(=O)(=O)O)c2ccccc2)c(=O)n1Cc1c(F)cccc1C(F)(F)F .
Response: 1.1

Query: If you can, please state the reported IC50 value of Cc1c(N2CCN(Cc3cccc(F)c3F)CC2)c(=O)n(C[C@H](N)c2ccccc2)c(=O)n1Cc1c(F)cccc1C(F)(F)F .
Response: 0.39

Query: If you can, please state the reported IC50 value of Cc1c(N2CCC(Cc3ccccc3)CC2)c(=O)n(C[C@H](N)c2ccccc2)c(=O)n1Cc1c(F)cccc1F .
Response: 34.2

Data provenance is ChEMBL document CHEMBL4428102.
